measurement-notes: Dissociation constant, pKa of compound
Format: physicochemical
measured-attribute: pKa

>>> value_reported("CCOc1cccnc1Oc1cncc(-c2ncc(C(=O)NC(C)(C)CO)cn2)c1")
2.5

---

Papp values, listed per item
measurement-notes: Apparent permeability in MDCK-II cells
Assay type: ADME, cell-based, Canis lupus familiaris
cond: dog, MDCK; read-out: Papp
measured-attribute: Papp (×10⁻⁶ cm/s)

>>> value_reported("CCOc1cccnc1Oc1cncc(-c2ncc(C(=O)N[C@@H]3CCOC3)cn2)c1")
14
>>> value_reported("CCNC(=O)c1cnc(-c2cncc(Oc3ncccc3OCC)c2)nc1")
15
>>> value_reported("CCOc1cccnc1Oc1cncc(-c2ncc(C(=O)NC3CCCOC3)cn2)c1 (racemic)")
23
>>> value_reported("CCOc1cccnc1Oc1cncc(-c2ncc(C(=O)NC3CCOCC3)cn2)c1")
20
>>> value_reported("CCOc1cccnc1Oc1cncc(-c2ncc(C(=O)NC3(CO)CCOC3)cn2)c1 (stereo in doubt; 4)")
4
>>> value_reported("CCOc1cccnc1Oc1cncc(-c2ncc(C(=O)NC(C)(C)CO)cn2)c1")
21

---

measurement-notes: Half life in cynomolgus monkey at 5 mg/kg, po
Type: ADME, organism-based, Macaca fascicularis
cond: in vivo
measured-attribute: half-life (h)

>>> value_reported("CCOc1cccnc1Oc1cncc(-c2ncc(C(=O)N[C@H]3CCOC3)cn2)c1")
4

---

We begin with a simple list: items and their reported hepatocyte CLint at 1 µM.
measurement-notes: Apparent intrinsic clearance in cryopreserved human hepatocytes measured per million cells at 1 uM incubated for 4 hrs by LC-MS/MS analysis
Type: ADME, cell-based, Hepatocyte
cond: cryopreserved human hepatocytes, read-out: CLH
measured-attribute: hepatocyte CLint at 1 µM (µL/min/1e6 cells)

>>> value_reported("CCOc1cccnc1Oc1cncc(-c2ncc(C(=O)NC3CCOCC3)cn2)c1")
7
>>> value_reported("CCOc1cccnc1Oc1cncc(-c2ncc(C(=O)NC(C)(C)CO)cn2)c1")
8
>>> value_reported("CCOc1cccnc1Oc1cncc(-c2ncc(C(=O)N[C@@H]3CCOC3)cn2)c1")
5
>>> value_reported("CCOc1cccnc1Oc1cncc(-c2ncc(C(=O)NC3CCCOC3)cn2)c1 (racemic)")
11
>>> value_reported("CCNC(=O)c1cnc(-c2cncc(Oc3ncccc3OCC)c2)nc1")
7
>>> value_reported("CCOc1cccnc1Oc1cncc(-c2ncc(C(=O)NC3CCS(=O)(=O)C3)cn2)c1 (racemic)")
5
>>> value_reported("CCOc1cccnc1Oc1cncc(-c2ncc(C(=O)NC(C)(C)CS(C)(=O)=O)cn2)c1")
8

---

study-target: CYP3A4/5 (Homo sapiens, UniProt P08684+P20815)
measurement-notes: Reversible inhibition of CYP3A4/5 in pooled human liver microsomes
Assay type: ADME, Microsome
Reported IC50 values are given for each entry in this list.
measured-attribute: IC50

>>> value_reported("CCOc1cccnc1Oc1cncc(-c2ncc(C(=O)N[C@H]3CCOC3)cn2)c1")
"> 100 µM"
>>> value_reported("CCOc1cccnc1Oc1cncc(-c2ncc(C(=O)NC(C)(C)CO)cn2)c1")
"> 30 µM"

---

measurement-notes: physchem
cond: buffer, pH 7.4
Description: Lipophilicity, logD of compound at pH 7.4 by shake flask method
measured-attribute: logD

>>> value_reported("CCOc1cccnc1Oc1cncc(-c2ncc(C(=O)N[C@@H]3CCOC3)cn2)c1")
1.9
>>> value_reported("CCOc1cccnc1Oc1cncc(-c2ncc(C(=O)NC(C)(C)CO)cn2)c1")
2
>>> value_reported("CCOc1ccccc1O[C@@H]1CCCN(c2ncc(C(=O)NC(C)(C)CO)cn2)C1")
2.8
>>> value_reported("CCOc1cccnc1Oc1cncc(-c2ncc(C(=O)N[C@H]3CCOC3)cn2)c1 [PF-06865571]")
1.9
>>> value_reported("CCOc1cccnc1Oc1cncc(-c2ncc(C(=O)NC3CC(=O)N(C)C3)cn2)c1 (racemic)")
1.7
>>> value_reported("CCOc1cccnc1Oc1cncc(-c2ncc(C(=O)NC(C)(C)CS(C)(=O)=O)cn2)c1")
1.9
>>> value_reported("CCOc1cccnc1O[C@@H]1CCCN(c2ncc(C(=O)NC(C)(C)CO)cn2)C1")
1.8
>>> value_reported("CCOc1cccnc1Oc1cncc(-c2ncc(C(=O)NC3CCOCC3)cn2)c1")
2.6
>>> value_reported("CCOc1cccnc1Oc1cncc(-c2ncc(C(=O)NC3(CO)CCOC3)cn2)c1 (stereo in doubt; 4)")
1.6
>>> value_reported("CCOc1cccnc1Oc1cncc(-c2ncc(C(=O)NC3CCCOC3)cn2)c1 (racemic)")
2.2
>>> value_reported("CCOc1cccnc1Oc1cncc(-c2ncc(C(=O)NC3CCS(=O)(=O)C3)cn2)c1 (racemic)")
1.6
